System: Nuclear hormone receptor DAF-12 (Heterodera glycines), GAL4 fusion
Assay: H. glycines DAF-12 receptor agonists, primary screen, cell-based, luminescence, HEK293, GAL4 fusion, UAS-luciferase (AID 687014);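 note: 0% = DMSO wells and 100% = sodium butyrate wells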
Details: HEK293 GAL4-hgDAF12 UAS-luciferase reporter, agonist luminescence; at 6.8 µM; normalized to butyrate control
In all, about 370,000 compounds went through this assay and about 6,800 (1.8%) were called active.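 Rule for the calls: active = activation above a cutoff set at the mean of all screened compounds plus 3 SD (cut at about 10% in these data); inactive = the rest.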 Many of the other results were omitted from the sample, so actives are more common in it than they were.
The reply should name one outcome from active, inactive

input: Tell me the assay call for `Fc1cccc(Cl)c1CSc1ccc(-c2ccco2)nn1` please.
output: active

input: Dear all, I need the recorded test outcome for `O=S1(=O)c2c(NCc3ccco3)cccc2Oc2ccccc2CN1Cc1cn(Cc2cccc(C(F)(F)F)c2)nn1` , thank you.
output: inactive

input: Which outcome did this test record for the compound `CCOc1ccc(N(CC(=O)Nc2c(C)n(C)n(-c3ccccc3)c2=O)S(=O)(=O)c2ccc(Cl)s2)cc1` ?
output: inactive

* * *

Tested on: Nuclear hormone receptor DAF-12 (Heterodera glycines), GAL4 fusion
Assay: H. glycines DAF-12 receptor agonists, primary screen, cell-based, luminescence, HEK293, GAL4 fusion, UAS-luciferase (AID 687014);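 note: 0% = DMSO wells and 100% = sodium butyrate wells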
Conditions: HEK293 GAL4-hgDAF12 UAS-luciferase reporter, agonist luminescence; at 6.8 µM; stronger effect = higher value; normalized to butyrate control
The whole screen tested about 370,000 compounds, of which about 6,800 (1.8%) were called active. Shown is part of a subset that was picked to be rich in actives.
OBSERVATION TYPE: activation

The cases that follow already have their activation on record.
| COMPOUND | OBSERVATION TYPE | REPORTED VALUE |
| --- | --- | --- |
| CC(=O)N1C(C)c2ccccc2C(C)(C)CC12CCCCC2 (stereo unspecified) | activation | -2.75% (inactive) |
| O=C(NCc1ccco1)C1CCCN(S(=O)(=O)c2ccc(Cl)s2)C1 (stereo unspecified) | activation | 2.01% (inactive) |
| COc1ccc(C(=O)Nc2ccc(-n3nncc3C(C)(C)C)cc2)cc1 | activation | -2.44% (inactive) |
| CC(Sc1nc2cc(Cl)ccc2s1)C(=O)Nc1ccc2c(c1)OCO2 (stereo unspecified) | activation | 7.08% (inactive) |
| Cc1ccc(C2NC(C(=O)O)CS2)cc1 (stereo unspecified) | activation | -0.05% (inactive) |

input: Recorded activation for `COc1ccc(NC(=O)Nc2ccc3nsnc3c2)cc1` with Nuclear hormone receptor DAF-12 (Heterodera glycines), GAL4 fusion, please?
output: 15.7% (active)

input: Which activation is reported with Nuclear hormone receptor DAF-12 (Heterodera glycines), GAL4 fusion for this entry: `O=C(Nc1ccc2ccccc2c1)Nc1ccc2snnc2c1` ?
output: 1.18% (inactive)

input: For the record `COC(=O)[C@]12C[C@H](CC(=O)NCc3ccccc3)C(=O)N(CCc3ccc(OC)c(OC)c3)C1=C[C@H](C(C)(C)C)O[C@@H]2C` , what value of activation is listed for Nuclear hormone receptor DAF-12 (Heterodera glycines), GAL4 fusion?
output: 0.98% (inactive)

* * *

# reported activation; entries follow
Tested on: Nuclear hormone receptor DAF-12 (Heterodera glycines), GAL4 fusion
Experiment: H. glycines DAF-12 receptor agonists, primary screen, cell-based, luminescence, HEK293, GAL4 fusion, UAS-luciferase (AID 687014);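 note: 0% = DMSO wells and 100% = sodium butyrate wells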
Details: HEK293 GAL4-hgDAF12 UAS-luciferase reporter, agonist luminescence; at 6.8 µM; stronger effect = higher value; normalized to butyrate control
About 6,800 (1.8%) of roughly 370,000 compounds were called active. Only a selection was taken, and actives are over-represented in it overall.
A number alone suffices; assume %.

Example results:
| COMPOUND | REPORTED VALUE |
| --- | --- |
| COc1ccc(Cn2cc(CN3[C@@H](CC(C)C)COc4cc(Br)ccc4S3(=O)=O)nn2)cc1 | 2.35 |
| O=C(CSc1nc2ccccc2n1Cc1ccccc1)NNC(=S)Nc1ccccc1 | -0.74 |

input: Which activation is reported for this compound? `CN1CCN(CCNC(=O)Nc2ccccc2[N+](=O)[O-])CC1`
output: 0.56

input: Dear colleague, I am looking for the recorded activation of the following compound: `CCc1ccc2oc(-c3ccc(N)cc3)nc2c1`
output: 15.5

* * *

Reported activation by item:
Tested on: Nuclear hormone receptor DAF-12 (Heterodera glycines), GAL4 fusion
Assay: H. glycines DAF-12 receptor agonists, primary screen, cell-based, luminescence, HEK293, GAL4 fusion, UAS-luciferase (AID 687014);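 note: 0% = DMSO wells and 100% = sodium butyrate wells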
Settings: HEK293 GAL4-hgDAF12 UAS-luciferase reporter, agonist luminescence; at 6.8 µM; stronger effect = higher value; normalized to butyrate control
The whole screen tested about 370,000 compounds, of which about 6,800 (1.8%) were called active. This is one part of a sample in which actives are shown more often than they occur.
Field: numeric (%). Do not append units.

Examples with answers:
| MOLECULE | ASSAYED TARGET | U | activation |
| --- | --- | --- | --- |
| CCCCNC(=O)C[C@H]1C[C@@]2(C(=O)OC)C(=C[C@H](COCc3ccccc3)O[C@@H]2C)N(Cc2ccc(Cl)cc2Cl)C1=O | Nuclear hormone receptor DAF-12 (Heterodera glycines), GAL4 fusion | % | 0.35 |
| Cc1ccccc1Nc1nc(N)nc(CN2CCN(c3ccccn3)CC2)n1 | Nuclear hormone receptor DAF-12 (Heterodera glycines), GAL4 fusion | % | -1.77 |
| CN(C)c1ccc(NC(=O)NC2CCCCN(Cc3ccc(Cl)cc3)C2=O)cc1 (stereo unspecified) | Nuclear hormone receptor DAF-12 (Heterodera glycines), GAL4 fusion | % | -1.5 |
| COC(=O)c1cc(S(=O)(=O)N2CCN(C(=O)C3CCCO3)CC2)cn1C (stereo unspecified) | Nuclear hormone receptor DAF-12 (Heterodera glycines), GAL4 fusion | % | -0.48 |
| CCOC(=O)[C@@]12CCC3=C1N(CCC3)C(=O)[C@H](CC(=O)N1CCN(C(=O)c3ccco3)CC1)C2 | Nuclear hormone receptor DAF-12 (Heterodera glycines), GAL4 fusion | % | -0.79 |

// next entry
input: Would you mind telling me what activation value was observed for `O=C1NC[C@H](CCCCN2C[C@H](Cc3ccc(O)cc3)N(CCc3ccccc3)C(=O)C2=O)N(CCc2ccccc2)C1=O` ?
output: -1.46

* * *

Tested on: Nuclear hormone receptor DAF-12 (Heterodera glycines), GAL4 fusion
Assay: H. glycines DAF-12 receptor agonists, primary screen, cell-based, luminescence, HEK293, GAL4 fusion, UAS-luciferase (AID 687014);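 note: 0% = DMSO wells and 100% = sodium butyrate wells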
Details: HEK293 GAL4-hgDAF12 UAS-luciferase reporter, agonist luminescence; at 6.8 µM; stronger effect = higher value; normalized to butyrate control
About 6,800 (1.8%) of roughly 370,000 compounds were called active. For the sample, actives were picked, then their nearest neighbours and some compounds at random.
Listed compounds paired with reported activation
Please give a number only; it is taken to be in %.

The cases that follow already have their activation on record.
| COMPOUND | REPORTED VALUE |
| --- | --- |
| COC(=O)c1ccc(N2CCOCC2)c(NC(=O)c2ccc3c(c2)OCCO3)c1 | 0.79 |
| Cc1ccc(S(=O)(=O)NCc2cn3ccsc3n2)c(C)c1 | -0.36 |
| COc1ccc(-c2cn3cccnc3n2)cc1 | 14.7 |
| CCn1c(C)nc2cc(C(=O)NNS(=O)(=O)c3ccc(C)cc3C)ccc21 | -0.8 |
| O=C(Nc1ccc(Cl)c(Cl)c1)c1ccccc1NC(=O)C1CC=CCC1C(=O)O (stereo not given) | 15.7 |
| CCOC(=O)[C@]12CCCC=C1N(Cc1ccc(OC)cc1)C(=O)[C@@H]2CC(=O)N1CCOCC1 | 0.99 |

input: Observed activation on Nuclear hormone receptor DAF-12 (Heterodera glycines), GAL4 fusion for O=C(Nc1cccc(Cl)c1Cl)c1ccccc1NC(=O)C1CC=CCC1C(=O)O (stereo not given) , please.
output: 5.07

input: # value lookup — system Nuclear hormone receptor DAF-12 (Heterodera glycines), GAL4 fusion, readout activation, item `FC(F)(F)Oc1ccc(-c2cn3cccnc3n2)cc1`
output: 9.13

* * *

Tested on: Nuclear hormone receptor DAF-12 (Heterodera glycines), GAL4 fusion
Experiment: H. glycines DAF-12 receptor agonists, primary screen, cell-based, luminescence, HEK293, GAL4 fusion, UAS-luciferase (AID 687014);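 note: 0% = DMSO wells and 100% = sodium butyrate wells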
Settings: HEK293 GAL4-hgDAF12 UAS-luciferase reporter, agonist luminescence; at 6.8 µM; stronger effect = higher value; normalized to butyrate control
Out of some 370,000 compounds screened, about 6,800 (1.8%) were called active. What follows is part of a selection rich in actives, with near analogues and random picks from the rest.
Below: a set of entries, each annotated with reported activation.
The reply should contain only the number, in %.

Field: example entries. Status: answers known.
| COMPOUND | REPORTED VALUE |
| --- | --- |
| O=C(CCCCCN1C(=O)C2C3C=CC(C3)C2C1=O)Nc1ccccn1 (centres undefined) | 2.03 |
| O=C(NC1CCCC1)C1CSCCS(=O)(=O)N1Cc1ccccc1 (centres undefined) | 2.17 |
| O=C(N/N=C/c1ccc(O)c(O)c1)C1c2ccccc2Oc2ccccc21 | -0.99 |
| Cc1ccc(/C=N/NC(=O)COc2ccccc2-c2ccccc2)cc1 | -6.53 |
| O=C(Nc1ccc(S(=O)(=O)N2CCc3ccccc3C2)cc1)c1ccccc1 | -0.73 |
| C=CCN1[C@H](CC(C)C)COc2cccc(N3CCCC3)c2S1(=O)=O | 1.57 |

input: Value wanted: activation (Nuclear hormone receptor DAF-12 (Heterodera glycines), GAL4 fusion) of entry `O=C(NN=Cc1ccc2c(c1)CCC2)c1ccccc1O`
output: 14.7

input: // fetch Nuclear hormone receptor DAF-12 (Heterodera glycines), GAL4 fusion activation for `O=C(CN1CCN(c2ccc(O)cc2)CC1)Nc1ccc(-c2ccccc2)cc1`
output: 0.81
